Can you tell me inhibition at 1 µM for the items I'm about to list?
Target: Human Recombinant Matriptase 2 (Homo sapiens)
Construct: purchased Enzo Life Sciences (an in-house preparation was also used) ALX-201-752-1
Sequence (Q8IU80 whole entry): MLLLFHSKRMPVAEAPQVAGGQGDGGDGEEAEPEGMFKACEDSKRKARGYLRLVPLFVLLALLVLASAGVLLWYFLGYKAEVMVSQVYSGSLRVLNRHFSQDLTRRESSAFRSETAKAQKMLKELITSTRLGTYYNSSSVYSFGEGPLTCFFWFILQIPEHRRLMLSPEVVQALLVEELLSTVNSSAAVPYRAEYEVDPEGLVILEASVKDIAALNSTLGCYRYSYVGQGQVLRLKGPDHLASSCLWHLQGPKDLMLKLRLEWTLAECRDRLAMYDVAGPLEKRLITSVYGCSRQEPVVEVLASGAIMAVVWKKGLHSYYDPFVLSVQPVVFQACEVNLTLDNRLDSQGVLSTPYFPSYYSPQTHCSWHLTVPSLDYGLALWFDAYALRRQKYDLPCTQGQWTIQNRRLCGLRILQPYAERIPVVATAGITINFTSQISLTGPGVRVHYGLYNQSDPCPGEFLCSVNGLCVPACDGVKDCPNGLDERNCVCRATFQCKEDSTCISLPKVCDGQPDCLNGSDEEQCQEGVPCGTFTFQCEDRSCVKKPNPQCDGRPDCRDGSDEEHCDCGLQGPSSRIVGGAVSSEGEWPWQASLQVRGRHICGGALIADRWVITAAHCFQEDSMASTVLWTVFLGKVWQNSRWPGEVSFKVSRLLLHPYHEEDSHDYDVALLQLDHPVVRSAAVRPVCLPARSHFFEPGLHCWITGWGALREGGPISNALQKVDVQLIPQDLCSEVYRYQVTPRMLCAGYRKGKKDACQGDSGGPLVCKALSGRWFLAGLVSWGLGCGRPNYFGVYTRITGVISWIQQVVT
Test: Matriptase 2 fluorescence based inhibition assay, Method B (50 mM TRIS pH 7.5, 150 mM NaCl, 0.01% gelatin)
Type: biochemical
Settings: 1 uM compound; Assay Used = B (Method B); read-out: Mar-2 % inhibition at 1 uM

In the examples that follow, each entry is paired with its recorded inhibition at 1 µM.
N=C(N)c1ccc2cc(C(=O)O)n(Cc3cc(N4CCOCC4=O)cc4ccccc34)c2c1 [Compound I-692]	0 to 25%
COc1ccc(Oc2cc(Cn3c(C(=O)O)cc4ccc(C(=N)N)cc43)c3ccccc3c2)cc1 [Compound I-688]	50 to 75%
CCOC(=O)c1cc2ccc(/C(N)=N/O)cc2n1Cc1cccc2ccccc12 [Compound I-675]	0 to 25%

Would you be so kind as to report inhibition at 1 µM for each listed record?
1. N=C(N)c1cnc2cc(C(=O)O)n(Cc3cccc4ccccc34)c2c1 [Compound I-713]
2. N=C(N)c1ccc2cc(C(=O)O)n(Cc3cc(Oc4ccncn4)cc4ccccc34)c2c1 [Compound I-618]
3. CN1CC[C@H](COC(=O)c2cc3ccc(C(=N)N)cc3n2Cc2cccc3ccccc23)c2ccccc21 [Compound I-779]
4. N=C(N)c1ccc2cc(C(=O)O)n(Cc3cc(OS(=O)(=O)c4ccccc4)cc4ccccc34)c2c1 [Compound I-621]
5. N=C(N)c1ccc2cc(C(=O)O)n(-c3ccc4ccccc4c3)c2c1 [Compound I-654]
6. N=C(N)c1ccc2cc(C(=O)OCCN)n(Cc3cccc4ccccc34)c2c1 [Compound I-745]
7. N=C(N)c1ccc2cc(C(=O)O)n(Cc3ccc(Oc4ccccc4)c4ccccc34)c2c1 [Compound I-705]
8. N=C(N)c1ccc2cc(C(=O)O)n(Cc3cc(Nc4ccccc4)cc4ccccc34)c2c1 [Compound I-656]

1. 0 to 25%
2. 50 to 75%
3. 25 to 50%
4. 75 to 100%
5. 0 to 25%
6. 0 to 25%
7. 50 to 75%
8. 50 to 75%

Hi, could you look up inhibition at 1 µM for each item in my list?
1. COc1ccc2cccc(Cn3c(C(=O)N[C@H]4CC[C@H](N)CC4)cc4ccc(C(=N)N)cc43)c2c1 [Compound I-775]
2. Cn1c(C(=O)O)c(Cc2cccc3ccccc23)c2cc(C(=N)N)ccc21 [Compound I-689]
3. N=C(N)c1cc2c(cn1)cc(C(=O)O)n2Cc1cccc2ccccc12 [Compound I-706]
4. CC(C)(C)OC(=O)Nc1cc2ccc(C(=N)N)cc2n1Cc1cc(S(=O)(=O)c2ccccc2)cc2ccccc12 [Compound I-603]
5. COc1ccc2c(Cn3c(C(=O)N[C@H]4CC[C@H](N)CC4)cc4ccc(/C(N)=N\O)cc43)cccc2c1 [Compound I-795]

["75 to 100%", "75 to 100%", "25 to 50%", "25 to 50%", "0 to 25%"]
